assay: binders of probe aFSTL3 on microarray, primary screen, stem cell growth factor project, biochemical, small-molecule microarray, fluorescence 635/667 (AID 1064); conditions: higher = more signal;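 note: measures binding of the biotinylated anti-FSTL3 antibody to printed compounds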
Response key: true means composite z-score >= 0.2; false means composite z-score < 0.2.

Reported composite z-score at or above 0.2? `[N-]=[N+]=NCc1ccccc1C[C@]1(C(=O)NCCN2CCOCC2)N=C(c2ccc(OCCCO)cc2)O[C@H]1c1ccccc1N=[N+]=[N-]`
true

Reported composite z-score at or above 0.2? [N-]=[N+]=NCc1ccccc1C[C@]1(C(=O)NCC(O)CO)N=C(c2ccc(OCCCO)cc2)O[C@H]1c1ccccc1N=[N+]=[N-] (some centres not stated)
true

Reported composite z-score at or above 0.2? CC(C)C(O)C1C=CC2C(=O)N(c3ccccc3)C(=O)C2N1Nc1ccc(C#N)cc1 (configuration not stated)
true

Reported composite z-score at or above 0.2? CCN(CC)c1ccc(N2CC=CC34O[C@@H]5C=CCCOC(=O)C5[C@H]3C(=O)N(CCCCCO)[C@@H]4C2=O)cc1 (some centres not stated)
true

Reported composite z-score at or above 0.2? `O=C/C=C/c1ccc2c(c1)OCO2`
false

Reported composite z-score at or above 0.2? O=C1C2C=CC(C(O)c3cccs3)N(Nc3ccccc3F)C2C(=O)N1c1ccccc1 (configuration not stated)
false

Reported composite z-score at or above 0.2? `COC(=O)[C@@]1(Cc2ccc(OC)cc2)[C@H]2c3cc(C(=O)N(C)C)n(Cc4c(OC)[nH]cc(C)c4=O)c3C[C@H]2CN1C(=O)c1ccccc1`
true

Reported composite z-score at or above 0.2? `Cc1ccc([C@H]2C(C(=O)O)=C[C@@H](C)N2S(=O)(=O)c2ccc(C)cc2)cc1`
true

Reported composite z-score at or above 0.2? CCOC(=O)C1=CCC(c2ccc([N+](=O)[O-])cc2)N(S(=O)(=O)c2ccc(C)cc2)C1 (configuration not stated)
true

Reported composite z-score at or above 0.2? CC(C)OC(=O)CC(=O)CC(O)c1ccc(C#N)cc1 (configuration not stated)
true

Reported composite z-score at or above 0.2? `CCCCC=C[C@@H](NC(=O)c1ccco1)c1ccccc1`
false

Reported composite z-score at or above 0.2? `O=C1O[C@H](c2ccccc2)[C@H](c2ccccc2)N2[C@H]1[C@@H](C(=O)N1CCN(c3ncccn3)CC1)[C@]1(C(=O)Nc3ccccc31)[C@H]2c1ccc(OCCO)cc1`
false

Reported composite z-score at or above 0.2? `C=C(CCCC)C(=O)CC[C@H](OC(=O)c1cccnc1)c1cccc(OCCO)c1`
false

Reported composite z-score at or above 0.2? CC(c1ccccc1)C(O)C1C=CC2C(=O)NC(=O)C2N1Nc1ccccn1 (configuration not stated)
false

Reported composite z-score at or above 0.2? `COCCOC(=O)N1C(=O)[C@@]2(c3cc(C#CCC(C(=O)OC)C(=O)OC)ccc31)[C@H](c1ccccc1OCCO)N1[C@H](c3ccccc3)[C@H](c3ccccc3)OC(=O)[C@H]1[C@@H]2C(=O)N1CCc2cc(OC)c(OC)cc2C1`
false

Reported composite z-score at or above 0.2? `CCCNC(=O)[C@@]1(c2ccc([N+](=O)[O-])cc2)CC(=O)N(CC23CC4CC(CC(C4)C2)C3)[C@@H]1c1ccc(CO)cc1`
false

Reported composite z-score at or above 0.2? `CC(C)C(=C=CC[C@H](O)c1ccccc1OCCO)C[C@H](O)c1ccccn1`
false

Reported composite z-score at or above 0.2? `CC(C)NC(=O)[C@@H]1c2ccccc2C(=O)N(Cc2ccccc2)[C@H]1c1ccc(CO)cc1`
true

Reported composite z-score at or above 0.2? `COC(=O)[C@@]1(Cc2ccccc2)[C@H]2c3cc(C(=O)N(C)C)n(Cc4cc(C)n(C)n4)c3C[C@H]2CN1C(=O)c1ccccc1`
true

Reported composite z-score at or above 0.2? `COC(=O)[C@@]1(Cc2ccc(F)cc2)[C@H]2c3cc(C(=O)N(C)C)n(CCc4ccccn4)c3C[C@H]2CN1C(=O)c1ccccc1`
true

Reported composite z-score at or above 0.2? O=C1OCC=C[C@H]2OC34C=CCN(c5ccc(Cl)cc5)C(=O)[C@H]3N(CCCCCCO)C(=O)[C@@H]4[C@@H]12 (some centres not stated)
true

Reported composite z-score at or above 0.2? `CC(=O)Nc1cc(Br)ccc1C(=O)O`
false

Reported composite z-score at or above 0.2? `CCOC(=O)C1=C[C@@H](CC)N(S(=O)(=O)c2ccc(C)cc2)[C@H]1c1ccccc1`
false

Reported composite z-score at or above 0.2? CCOC(=O)C1=CCC(C(C)(C)C)N(S(=O)(=O)c2ccc(C)cc2)C1 (configuration not stated)
false

Reported composite z-score at or above 0.2? `O=C1O[C@H](c2ccccc2)[C@H](c2ccccc2)N2[C@H]1[C@@H](C(=O)O)[C@]1(C(=O)Nc3ccc(C#CC4(O)CCCCCC4)cc31)[C@H]2c1ccc(OCCO)cc1`
false

Reported composite z-score at or above 0.2? `CCOC(=O)C[C@H]1[C@H](OC(=O)c2ccccc2-c2ccccc2)[C@@H](NC(=O)Cc2ccc(OC)cc2)c2cc(OCCCO)ccc2N1C(=O)c1ccccc1`
false

Reported composite z-score at or above 0.2? C=CCC(OC(C)=O)[C@@H]1[C@@H](N(Cc2ccc(-c3ccccc3)cc2)C(=O)Cc2ccc(OC)cc2)c2cc(OCCCO)ccc2N1C(=O)c1ccc2ccccc2n1 (some centres not stated)
false

Reported composite z-score at or above 0.2? `COC(=O)[C@@]1(Cc2ccccc2)[C@H]2c3cc(C(=O)N4CCCC4)n(C)c3C[C@H]2CN1C(=O)c1ccccc1`
true

Reported composite z-score at or above 0.2? CCOC(=O)C1=CCC(c2ccc(C#N)cc2)N(S(=O)(=O)c2ccc(C)cc2)C1 (configuration not stated)
true

Reported composite z-score at or above 0.2? `C=C[C@@H](COC(C)=O)N(Cc1ccc([N+](=O)[O-])cc1)S(=O)(=O)c1ccc(Br)cc1`
true

Reported composite z-score at or above 0.2? `O=C(O)[C@@]1(Cc2ccccc2)N=C(c2ccc(OCCCO)cc2)O[C@H]1c1ccccc1`
true

Reported composite z-score at or above 0.2? COc1ccc(C(O)C2C=CC3C(=O)N(c4ccccc4)C(=O)C3N2Nc2ccc([N+](=O)[O-])cc2)cc1OCc1ccccc1 (configuration not stated)
true
